Tgt: T1, human GIP receptor (human, UniProt P48546 22-466)
T1 sequence (looked up): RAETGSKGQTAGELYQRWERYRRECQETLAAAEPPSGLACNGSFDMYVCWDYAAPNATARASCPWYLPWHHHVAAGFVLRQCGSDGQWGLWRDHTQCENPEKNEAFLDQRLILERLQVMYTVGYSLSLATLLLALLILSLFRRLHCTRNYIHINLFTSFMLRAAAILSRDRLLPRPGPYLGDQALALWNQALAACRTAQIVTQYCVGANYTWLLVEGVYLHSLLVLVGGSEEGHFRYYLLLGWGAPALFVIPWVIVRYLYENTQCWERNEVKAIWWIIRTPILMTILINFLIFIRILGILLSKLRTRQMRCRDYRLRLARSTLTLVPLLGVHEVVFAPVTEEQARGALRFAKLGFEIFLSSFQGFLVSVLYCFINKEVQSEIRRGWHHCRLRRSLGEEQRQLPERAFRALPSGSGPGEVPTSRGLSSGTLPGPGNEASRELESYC
Protocol text: cell-based or functional assay
Positions of bridges follow the written chain, without caps; N, C: chain ends. Non-standard residues stand in square brackets, D forms with d. No end group written: not given here. *: point of attachment. Acetyl(2-(4-imidazolyl)) = O=C(Cc1c[nH]cn1)*; Aib = CC(C)(N)C(=O)O
Parameter In vitro Activity Compared to Native Peptide (%) vs. GIP: see the listing below.

| Binder | Experimental result |
| --- | --- |
| HGQGTFTSDCSKYMDGQAAQDFVAWLLAGGPSSGAPPPS [triple agonist of SEQ ID NO: 45] | < 0.1% |
| Y[Aib]QGTFTSDYSKCLDEKRAKDFVQWLLDHHPSSGQPPPS (bridge 16-20) [triple agonist of SEQ ID NO: 70] | 64.4% |
| [Acetyl(2-(4-imidazolyl))][Aib]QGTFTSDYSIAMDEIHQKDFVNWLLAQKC (bridge 16-20) [triple agonist of SEQ ID NO: 92] | 0.4% |
| Y[Aib]QGTFTSDYSKYLDECAAKDFVQWLLDHHPSSGQPPPS (bridge 16-20) [triple agonist of SEQ ID NO: 67] | 39.8% |
| Y[Aib]QGTFTSDYSKALDEKAAKEFVNWLLDQHPSSGQPPPSC (bridge 16-20) [triple agonist of SEQ ID NO: 101] | 40.1% |

Endpoint output: In vitro Activity Compared to Native Peptide (%) vs. GIP of HGQGTFTSDCSKYLDGQRAQDFVNWLLAGGPSSGAPPPS [triple agonist of SEQ ID NO: 48] . Value?
< 0.1%

# input binder: [Acetyl(2-(4-imidazolyl))][Aib]QGTFTSDYSKYLDEKRQKEFVQWLLNTC (bridge 16-20) [triple agonist of SEQ ID NO: 81] ; wanted: its In vitro Activity Compared to Native Peptide (%) vs. GIP
< 0.1%
